Reported melting point is given for each of the following compounds.
measurement-label: melting point

INSERT INTO assay_data (compound, value_observed) VALUES
  ('OC1(Cc2ccccc2F)CCCCCC1', '35 to 38 °C'),
  ('COC[C@@H](C)n1cc(Cl)nc(N2CCc3cc(Br)cc(Br)c32)c1=O', '119 to 120 °C'),
  ('CC(=O)N[C@@H]1CCCC[C@H]1Nc1nc(Nc2ccc3c(c2)C(C)(C)CCC(=O)N3)ncc1Cl', '227 °C'),
  ('Nc1ccccc1C(=O)c1cccc(O)c1', '130 to 132 °C'),
  ('Cn1cnnc1SCC(=O)C12CC3CC(CC(C3)C1)C2', '134 to 136 °C'),
  ('CC(C)(C)[Si](C)(C)Oc1cccc(C2(Br)C(=O)NC(=O)NC2=O)c1', '170 to 172 °C'),
  ('CCn1nc(C)c2c1C(=O)NCC(c1ccccc1O)=N2', '220 °C'),
  ('CC1(C)CCOC1=Cn1cncn1', '47 °C'),
  ('CCCOC1=C(c2ccccc2)C(CCC(=O)O)OC1=O (stereo unspecified)', '123 to 125 °C'),
  ('COc1cccc(CO)c1C', '63 to 64 °C'),
  ('COc1ccc2[nH]c(SCc3ncc(F)c(N4CCOCC4)c3C)nc2c1', '84 to 86 °C'),
  ('Cc1nc(NC(=O)c2nnn(Cc3ccc(Cl)c(Cl)c3)c2C)sc1C(=O)O', '263 °C'),
  ('CN1CCN(c2ccc(-c3cnc4c(c3)C(O)CCN4)cn2)CC1 (stereo unspecified)', '124 to 128 °C'),
  ('CC(=O)Nc1cccc(C2=CCNc3c(C#N)cnn32)c1', '251 to 254 °C'),
  ('CCCOc1ccc2c(c1)C(c1ccccc1OCC(=O)O)C(C(=O)O)C2c1ccc2c(c1)OCO2 (stereo unspecified)', '169 to 170 °C'),
  ('Cc1ccc2nc(-c3cccnc3N)n(-c3ccc(CNC(=O)c4ccccc4)cc3)c2n1', '203 to 205 °C');

----------
Reported melting point is given for each of the following compounds.
measurement-label: melting point

INSERT INTO measurements (compound, value_observed) VALUES
  ('COc1ccc(Nc2nc(NC3CC3)nc(NC3CC3)n2)cc1F', '91 to 92 °C'),
  ('CCC(=O)Oc1ccc2c(c1)C(=O)N(C(=O)CC)C(C(Cl)(Cl)Cl)O2 (configuration not stated)', '92 to 94 °C'),
  ('Nc1cccc2c1CNC2=O', '196 to 197 °C'),
  ('CC(=O)CCc1cc(OC(C)=O)c(C(C)(C)C)cc1OC(C)=O', '66.5 to 68 °C'),
  ('Cc1cc(-c2cccc(NC(=O)N[C@@H]3c4cc(C#N)ccc4OC(C)(C)[C@H]3O)c2)on1', '140 to 148 °C'),
  ('CCOC(=O)C1=C(C)NC(c2csc(C)n2)=NC1c1ccc(F)cc1Cl (configuration not stated)', '123 to 125 °C'),
  ('CCOC(OCC)C(N)c1nnnn1C (configuration not stated)', '99 to 101 °C'),
  ('O=C(O)Cn1c(=O)c(=O)[nH]c2ccc3ccc(-n4ccc(CNC(=O)Nc5ccccc5)c4)cc3c21', '> 230 °C'),
  ('CC(OC(C)c1ccc(-c2ccc(Cl)cc2)cc1)C(=O)O (configuration not stated)', '144 to 146 °C'),
  ('CN(C)C=C(C#N)C(=O)c1ccc(C(C)(CN)C(=O)OC(C)(C)C)cc1 (configuration not stated)', '160 to 162 °C'),
  ('CCCC(C)(N)Cc1c[nH]c2ccccc12 (configuration not stated)', '73.5 to 74.5 °C'),
  ('CCCc1nc(C(C)(C)O)c(C(=O)OCc2oc(=O)oc2C)n1Cc1ccc(-c2ccccc2C(=O)O)cc1', '90 to 93 °C');
